Target: Phenylalanine--tRNA ligase alpha/beta subunit (Pseudomonas aeruginosa (strain ATCC 15692 / PAO1 / 1C / PRS 101 / LMG12228), UniProt A0A8B5A132+Q9I0A4)
Sequence (A0A8B5A132 whole entry): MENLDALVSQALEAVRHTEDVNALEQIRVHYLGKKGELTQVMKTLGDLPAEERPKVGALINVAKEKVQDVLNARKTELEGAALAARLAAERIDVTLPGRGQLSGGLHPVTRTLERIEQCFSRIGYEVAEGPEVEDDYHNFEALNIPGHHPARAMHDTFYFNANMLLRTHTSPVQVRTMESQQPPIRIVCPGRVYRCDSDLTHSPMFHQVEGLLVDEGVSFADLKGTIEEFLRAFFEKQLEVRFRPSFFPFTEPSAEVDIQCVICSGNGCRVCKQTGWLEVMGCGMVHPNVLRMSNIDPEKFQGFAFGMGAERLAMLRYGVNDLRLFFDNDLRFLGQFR
Sequence (Q9I0A4 whole entry): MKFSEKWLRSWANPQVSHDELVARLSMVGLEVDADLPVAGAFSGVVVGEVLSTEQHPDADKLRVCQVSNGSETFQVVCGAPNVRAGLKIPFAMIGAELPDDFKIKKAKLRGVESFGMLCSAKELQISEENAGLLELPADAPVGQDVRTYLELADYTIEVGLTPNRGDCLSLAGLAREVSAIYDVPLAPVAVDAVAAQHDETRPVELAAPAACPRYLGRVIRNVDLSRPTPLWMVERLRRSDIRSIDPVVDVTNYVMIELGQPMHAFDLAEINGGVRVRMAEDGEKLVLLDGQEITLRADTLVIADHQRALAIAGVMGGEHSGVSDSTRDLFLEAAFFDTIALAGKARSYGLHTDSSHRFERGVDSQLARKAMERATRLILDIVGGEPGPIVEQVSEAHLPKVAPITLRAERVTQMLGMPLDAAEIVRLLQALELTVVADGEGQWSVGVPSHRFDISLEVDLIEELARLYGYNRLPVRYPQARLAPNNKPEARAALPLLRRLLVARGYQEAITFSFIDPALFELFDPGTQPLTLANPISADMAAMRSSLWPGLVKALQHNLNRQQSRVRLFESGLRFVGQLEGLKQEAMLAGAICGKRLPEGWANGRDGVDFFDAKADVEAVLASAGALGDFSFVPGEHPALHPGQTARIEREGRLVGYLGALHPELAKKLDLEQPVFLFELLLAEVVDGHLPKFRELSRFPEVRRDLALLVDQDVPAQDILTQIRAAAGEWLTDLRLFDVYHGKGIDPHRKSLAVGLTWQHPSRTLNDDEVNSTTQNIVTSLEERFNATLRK
Assay: Aminoacylation Assay
Settings: pH 8
propertyLabel: IC50
Don't forget the unit after the value.

Below: 3 compounds and their reported IC50.
1. O=C(COc1cccc(Nc2cc(Cl)ccn2)c1)NC1CCS(=O)(=O)C1 (configuration not stated): 34 µM
2. NS(=O)(=O)CCNC(=O)c1csc(COc2ccc(Cl)cc2)n1: 26 µM
3. Cc1ccc(OCc2nc(C(=O)NC3CCS(=O)(=O)C3)cs2)cc1 (configuration not stated): 80 µM

Query string: Would you mind telling me what IC50 value was observed for CNC(=O)COc1cccc(Nc2cc(C#N)ccn2)c1 ?
Result string: 41 µM

Query string: Repeat for the following compound: N#CCNC(=O)c1csc(COc2ccc(Cl)cc2)n1
Result string: 13 µM

Query string: Repeat for the following compound: O=C(Nc1cccc(S(=O)(=O)N2CCN(c3ccccn3)CC2)c1)Nc1nccs1
Result string: 0.022 µM

Query string: Repeat for the following compound: CNC(=O)COc1cccc(Nc2cc(Cl)ccn2)c1
Result string: 82 µM

---

Molecular target: Phenylalanine--tRNA ligase alpha/beta subunit (Pseudomonas aeruginosa, UniProt Q9I0A3+Q9I0A4)
Assay: Aminoacylation Assay
Details: pH 8
IC50 overview
Quick note: give the figure in µM, leave out the unit.

Below: 4 molecules and their reported IC50.
1) CS(=O)(=O)C1(CCNC(=O)COc2cccc(-c3cc(C(F)(F)F)[nH]n3)c2)CC1: 4.2
2) CCOC(=O)COc1cccc(-c2cc(C(F)F)n[nH]2)c1: 59
3) COc1cccc(-c2cc(C(F)(F)F)n[nH]2)c1: 10
4) CCOC(=O)COc1cccc(-c2cc(C(F)(F)F)[nH]n2)c1: 11

Query string: Would you mind telling me what IC50 value was observed for O=C(Nc1cccc(S(=O)(=O)NCCc2c[nH]c3ccccc23)c1)Nc1nccs1 ?
Result string: 0.013

---

pIC50 overview
Biological target: Phenylalanine--tRNA ligase alpha/beta subunit (Escherichia coli (strain K12), UniProt P07395+P08312)
Sequence (P08312 whole entry): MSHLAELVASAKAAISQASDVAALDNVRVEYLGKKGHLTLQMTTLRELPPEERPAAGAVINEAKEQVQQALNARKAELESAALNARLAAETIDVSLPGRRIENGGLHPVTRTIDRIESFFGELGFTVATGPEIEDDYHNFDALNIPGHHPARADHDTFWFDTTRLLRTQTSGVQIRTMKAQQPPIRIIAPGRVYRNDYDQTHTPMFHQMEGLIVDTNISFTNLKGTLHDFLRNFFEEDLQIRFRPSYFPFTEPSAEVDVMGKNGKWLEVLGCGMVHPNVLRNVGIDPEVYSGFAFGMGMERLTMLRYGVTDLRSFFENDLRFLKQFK
Sequence (P07395 whole entry): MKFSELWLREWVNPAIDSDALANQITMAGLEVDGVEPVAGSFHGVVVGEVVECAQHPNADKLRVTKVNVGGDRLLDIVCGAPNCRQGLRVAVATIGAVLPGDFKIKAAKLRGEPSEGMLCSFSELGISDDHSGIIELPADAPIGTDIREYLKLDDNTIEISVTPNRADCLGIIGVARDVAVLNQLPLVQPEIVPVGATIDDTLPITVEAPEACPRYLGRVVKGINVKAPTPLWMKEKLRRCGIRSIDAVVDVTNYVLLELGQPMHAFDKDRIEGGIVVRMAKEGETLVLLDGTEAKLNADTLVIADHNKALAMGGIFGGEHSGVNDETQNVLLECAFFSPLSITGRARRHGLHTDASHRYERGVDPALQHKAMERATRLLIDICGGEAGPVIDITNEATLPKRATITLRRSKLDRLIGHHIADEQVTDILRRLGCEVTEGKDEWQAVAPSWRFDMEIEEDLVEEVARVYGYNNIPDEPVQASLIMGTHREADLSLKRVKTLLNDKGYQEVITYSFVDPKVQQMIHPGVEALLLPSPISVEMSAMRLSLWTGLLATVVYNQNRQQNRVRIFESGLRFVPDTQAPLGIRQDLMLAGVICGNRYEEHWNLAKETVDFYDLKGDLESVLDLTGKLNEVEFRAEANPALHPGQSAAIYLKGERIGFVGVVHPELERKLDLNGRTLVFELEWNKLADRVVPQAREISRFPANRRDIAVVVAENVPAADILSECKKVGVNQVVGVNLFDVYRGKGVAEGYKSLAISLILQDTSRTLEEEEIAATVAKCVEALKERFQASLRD
Assay: Aminoacylation Assay
Conditions: pH 8
Conceptually, pIC50 converts a concentration in mol/L into minus its log10.

1) CNC(=O)COc1cccc(Nc2cc(C#N)ccn2)c1: 6.25
2) O=C(Nc1cccc(S(=O)(=O)NCCc2c[nH]c3ccccc23)c1)Nc1nccs1: 8.66
3) COc1cccc(-c2ncc(C(F)(F)F)[nH]2)c1: 4.80

Query string: Would you mind telling me what pIC50 value was observed for NS(=O)(=O)CCNC(=O)c1csc(COc2ccc(Cl)cc2)n1 ?
Result string: 6.72

Query string: Repeat for the following compound: COc1cccc(-c2cc(C(F)(F)F)n[nH]2)c1
Result string: 7.22

Query string: Repeat for the following compound: O=C(COc1cccc(Nc2cc(Cl)ccn2)c1)NC1CCS(=O)(=O)C1 (configuration not stated)
Result string: 7.00

Query string: Repeat for the following compound: CCOC(=O)COc1cccc(-c2cc(C(F)(F)F)[nH]n2)c1
Result string: 7.10

---

pIC50 overview
Biological target: Phenylalanine--tRNA ligase alpha/beta subunit (Escherichia coli (strain K12), UniProt P07395+P08312)
Assay: Aminoacylation Assay
Details: pH 8
Conceptually, pIC50 converts a concentration in mol/L into minus its log10.

Below: 3 molecules and their reported pIC50.
1. Cc1ccc(OCc2nc(C(=O)NC3CCS(=O)(=O)C3)cs2)cc1 (stereo unspecified): 5.85
2. O=C(Nc1cccc(S(=O)(=O)N2CCN(c3ccccn3)CC2)c1)Nc1nccs1: 8.57
3. N#CCNC(=O)c1csc(COc2ccc(Cl)cc2)n1: 7.00

Query string: Would you mind telling me what pIC50 value was observed for CNC(=O)COc1cccc(Nc2cc(Cl)ccn2)c1 ?
Result string: 5.85

Query string: Repeat for the following molecule: CCOC(=O)COc1cccc(-c2cc(C(F)F)n[nH]2)c1
Result string: 6.00

Query string: Repeat for the following molecule: CS(=O)(=O)C1(CCNC(=O)COc2cccc(-c3cc(C(F)(F)F)[nH]n3)c2)CC1
Result string: 7.15

Reference for the values: BindingDB's records for doi:10.1074/jbc.M114.574061
